measurement-description: Partition coefficient (logP)
Type: physicochemical
test-settings: octanol/water; read-out: logP
Output True for records whose logP is lower than 7, False for records at or above 7.

Reference set, count: 10
molecule: COc1ccc(C(C#N)(CCCCN2CCc3cc(OC)c(OC)cc3C2)Sc2ccc(C)cc2)cc1OC (stereo not drawn)
group-label: True

molecule: COc1cc2c(cc1OC)CN(CCCCCCC(Sc1ccc(C)cc1)c1ccc(OC)c(OCCCl)c1)CC2 (stereo not drawn)
group-label: False

molecule: COc1ccc(C(C#N)(CCCCCN2Cc3cc(Cl)c(Cl)cc3C2)Sc2ccc(C)cc2)cc1OC (stereo not drawn)
group-label: False

molecule: CCCCCSC(CCCCCN1CCc2cc(OC)c(OC)cc2C1)c1ccc(OC)c(OC)c1 (stereo not drawn)
group-label: True

molecule: COc1ccc(C(C#N)(CCCCCN2Cc3cc(OC)c(OC)cc3C2)Sc2ccc(C)cc2)cc1OC (stereo in doubt; 28a)
group-label: True

molecule: COc1ccc(C(C#N)(CCCCCN2CCc3cc(OC)c(OCCn4ccnc4)cc3C2)SC2CCCCC2)cc1OC (stereo not drawn)
group-label: True

molecule: COc1ccc(C(CCCCCN2CCc3cc(OC)c(OC)cc3C2)SCc2ccccc2)cc1OC (stereo not drawn)
group-label: True

molecule: COc1cc2c(cc1OC)CN(CCCCCCC(Sc1ccccc1)c1ccccc1)CC2 (stereo not drawn)
group-label: False

molecule: COc1ccc(C(CCCCCCN2CCc3cc(OC)c(OC)cc3C2)Sc2ccc(C)cc2)cc1OC (stereo not drawn)
group-label: False

molecule: COc1cc2c(cc1OC)CN(CCCCCCC(Sc1ccc(C)cc1)c1ccc(F)cc1)CC2 (stereo not drawn)
group-label: False

Is logP of COc1cc2c(cc1O)CN(CCCCCC(C#N)(SC1CCCCC1)c1ccc(OC)c(OC)c1)CC2 (stereo not drawn) strictly below 7? True

How about COc1ccc(C(C#N)(CCCCCN2CCc3ccccc3C2)Sc2ccc(C)cc2)cc1OC (stereo not drawn) ? True

How about COc1ccc(C(CCCCCN2CCc3cc(OC)c(OC)cc3C2)SC2CCCCC2)cc1OC (stereo not drawn) ? False

How about COc1ccc(C(CCCCCN2CCc3cc4c(cc3C2)OCO4)Sc2ccc(C)cc2)cc1OC (stereo not drawn) ? False

How about COc1cc2c(cc1OC)CN(CCCCCCC(Sc1ccc(C)cc1)c1ccc(OC)c(OCCn3ccnc3)c1)CC2 (stereo in doubt; 37b) ? False

How about COc1ccc(C(C#N)(CCCCCN2CCc3cc4c(cc3C2)OCO4)Sc2ccc(C)cc2)cc1OC (stereo not drawn) ? True

How about COc1ccc(C(CCCCCCN2CCc3cc(OC)c(OC)cc3C2)Sc2ccc(C)cc2)cc1O (stereo not drawn) ? False

====

Test system: Mus musculus
measurement-description: Percent tumor growth inhibition against human epidermoid carcinoma KB/8.5 implanted subcutaneously in mice at 100 mg/kg of compound along with 8 mg/kg (DOX ) was determined
Assay type: functional
Here the recorded TGI is given for each entry.
# output: bare number, implied unit %

compound: COc1ccc(C(CCCCCCN2CCc3cc(OC)c(OC)cc3C2)Sc2ccc(C)cc2)cc1OC (centres undefined)
value-observed: 64

Please state recorded TGI (tested on Mus musculus) of COc1ccc(C(CCCCCN2CCc3cc(OC)c(OC)cc3C2)SC2CCCCC2)cc1OC (centres undefined) 57

How about CCC(CCCCCN1CCc2cc(OC)c(OC)cc2C1)(Sc1ccc(C)cc1)c1ccc(OC)c(OC)c1 (centres undefined) ? 72

How about COc1cc2c(cc1OC)CN(CCCCCCC(Sc1ccccc1)c1ccccc1)CC2 (centres undefined) ? 65
